# test_protocol: Stability in pH 7.4 sodium phosphate buffer assessed as hydrolysis at 10 uM after 30 mins
# Type: physicochemical
# run_conditions: read-out: Activity
measured_attribute: degraded at 0.5 h, 10 µM (%)

CN1C(=O)C=C(c2ccccc2)C1=O: 1

* * *

# test_protocol: Stability in pH 7 sodium phosphate buffer assessed as hydrolysis at 100 uM at 360 mins
# Type: physicochemical
# run_conditions: read-out: Activity
measured_attribute: degraded at 6 h, 100 µM (%)

CN1C(=O)C=C(c2ccccc2)C1=O: 13

* * *

# test_protocol: Inhibition of MAO-B in baboon liver microsome assessed as MMDP+ formation
# Format: microsomes, Papio hamadryas
pKi: −log10 of the molar value.
// values below are reported pKi
measured_attribute: pKi

CN1C(=O)C=C(c2cccc(Cl)c2)C1=O: 5.18
CN1C(=O)C=C(c2cccc(Br)c2)C1=O: 5.16
CN1C(=O)C=C(c2cccc(C(F)(F)F)c2)C1=O: 4.96
Cc1cccc(C2=CC(=O)N(C)C2=O)c1: 5.07
CN1C(=O)C=C(c2ccccc2)C1=O: 5.46
COc1cccc(C2=CC(=O)N(C)C2=O)c1: 5.07
CN1C(=O)C=C(c2cccc(F)c2)C1=O: 5.24
